# experimental-target: T1, R &D hRGMc-His (human, UniProt Q6ZVN8 36-400)
# T1 construct: Bought (R&D) His-tagged human RGMc; also called human RGMc; not shown: His tag
# T1 sequence: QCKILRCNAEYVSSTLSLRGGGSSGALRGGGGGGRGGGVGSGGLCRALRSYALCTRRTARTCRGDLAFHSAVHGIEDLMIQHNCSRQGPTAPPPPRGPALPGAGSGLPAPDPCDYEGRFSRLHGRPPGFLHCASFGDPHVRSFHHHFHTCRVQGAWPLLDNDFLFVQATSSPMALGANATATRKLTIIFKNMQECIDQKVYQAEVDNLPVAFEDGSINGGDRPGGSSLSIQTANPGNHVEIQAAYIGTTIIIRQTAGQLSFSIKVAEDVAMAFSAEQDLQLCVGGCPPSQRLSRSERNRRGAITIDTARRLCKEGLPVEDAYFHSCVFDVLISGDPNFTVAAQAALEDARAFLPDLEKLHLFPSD
# method-summary: BIAcore; Ab captured on CM5 chip via anti-hIgG Fc Ab, antigen injected; 1:1 Langmuir fit
value-type: Kd

INSERT INTO results (binder, value_type, observed_measurement) VALUES
  ('h5F9.AM8 (antibody, V domains shown, also called RGMA-h5F9AM.8; RGMA-h5F9pJP297/pJP 298 hIgG1/K mut) VH: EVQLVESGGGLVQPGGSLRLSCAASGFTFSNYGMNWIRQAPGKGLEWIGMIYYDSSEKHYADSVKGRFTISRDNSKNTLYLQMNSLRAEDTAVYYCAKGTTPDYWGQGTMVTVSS VL: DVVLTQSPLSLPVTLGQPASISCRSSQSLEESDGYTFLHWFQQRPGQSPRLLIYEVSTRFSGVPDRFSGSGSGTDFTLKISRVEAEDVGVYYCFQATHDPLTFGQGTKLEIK', 'Kd', '0.105 nM');

From: patent EP4817631A2
